Every entry's value here was drawn from PubChem BioAssay.

experiment: basal RPMI8226 mitochondrial membrane potential changes, profiling panel, cell-based, JC-1 fluorescence, 24 h, 100 nL compound (AID 1169); settings: RPMI8226 myeloma, JC-1 mitochondrial potential fluorescence, higher = more signal; note: test concentration not given here
Classify as follows. Reported z-score greater than or equal to -0.5: 1. Reported z-score below: -1.

{"Smiles data": "COC(=O)[C@@]1(Cc2ccc(OC)cc2)[C@H]2c3cc(C(=O)N(C)C)n(C)c3C[C@H]2CN1C(=O)c1ccccc1", "Category label": -1}
{"Smiles data": "O=C1C[C@]2(c3ccc([N+](=O)[O-])cc3)C(=O)N(CC(F)(F)F)c3cc(CO)ccc3[C@H]2N1C1CCCCC1", "Category label": 1}
{"Smiles data": "COc1cc2c(cc1OC)CN(C(=O)[C@H]1[C@@H]3C(=O)O[C@@H](c4ccccc4)[C@@H](c4ccccc4)N3[C@@H](c3ccc(O)cc3)[C@]13C(=O)Nc1ccccc13)CC2", "Category label": -1}
{"Smiles data": "COC(=O)[C@@]1(Cc2ccc(F)cc2)[C@H]2c3cc(C(=O)N(C)C)n(Cc4ccccc4)c3C[C@H]2CN1C(=O)c1ccccc1", "Category label": 1}
{"Smiles data": "COC(=O)C[C@H]1O[C@]2(C(=O)N(C)c3ccccc32)[C@@H](C)[C@@H]1[Si](C)(C)F", "Category label": 1}
{"Smiles data": "C=CC[C@@]12N=C(c3ccc(OCCCO)cc3)O[C@@H]1c1ccccc1N(C)C2=O", "Category label": -1}
{"Smiles data": "O=C(N1CCCCC1)[C@]1(Cc2ccccc2)N=C(c2ccc(OCCCO)cc2)O[C@@H]1c1ccccc1", "Category label": -1}

###

test: P. aeruginosa biofilm formation inhibitors, primary screen, PAO1 strain, BacTiter-Glo luminescence, LB-PBS (AID 1144); settings: 12 h, higher = more signal
Classify as follows. Reported z-score greater than or equal to -0.05: true. Reported z-score below: false.

{"Molecule": "COC(=O)[C@@]1(Cc2ccccc2)[C@H]2c3cc(C(=O)N(C)C)n(Cc4ccsc4Br)c3C[C@H]2CN1C(=O)c1ccccc1", "Category label": "false"}
{"Molecule": "C[N+](C)(C)CCCCNC(=O)[C@@H]1C[C@@H]2C(=O)N[C@@H](Cc3ccccc3)C(=O)N2[C@@H]1c1cccc(OCCO)c1", "Category label": "false"}
{"Molecule": "COc1ccc(-c2cc3c(c(-c4ccc(Oc5ccccc5)cc4)n2)[Si](C(C)C)(C(C)C)OC3)cn1", "Category label": "true"}
{"Molecule": "O=C1c2ccccc2[C@](Cc2ccccc2I)(C(=O)NCCN2CCOCC2)[C@H](c2ccc(CO)cc2)N1Cc1ccccc1Cl", "Category label": "true"}
{"Molecule": "C=CC[C@]1(C(=O)NCCCOC)N=C(c2ccc(OCCCO)cc2)O[C@H]1c1ccccc1CN=[N+]=[N-]", "Category label": "true"}
{"Molecule": "O=C1O[C@@H](c2ccccc2)[C@@H](c2ccccc2)N2[C@@H](c3ccccc3OCCO)[C@]3(C(=O)Nc4ccc(C#CC5=CCCCC5)cc43)[C@@H](C(=O)N3CCCCCCC3)[C@H]12", "Category label": "true"}
{"Molecule": "O=C(OCc1ccccc1)C1=CCC2c3[nH]c4ccccc4c3C(=O)C1N2S(=O)(=O)c1ccccc1[N+](=O)[O-] (stereo not drawn)", "Category label": "true"}
{"Molecule": "C=CCOC(=O)[C@H]1[C@@H]2C(=O)O[C@@H](c3ccccc3)[C@@H](c3ccccc3)N2[C@@H](c2ccc(OCCOC(=O)[C@H]3C[C@H]4C(=O)N[C@@H](CCCCN(C)C)C(=O)N4[C@H]3c3ccc(O)cc3)cc2)[C@]12C(=O)Nc1ccc(I)cc12", "Category label": "true"}
{"Molecule": "COC(=O)[C@@]1(Cc2ccc(F)cc2)[C@H]2c3cc(C(=O)N4CCCC4)n(CCCNc4ncc(C(F)(F)F)cc4Cl)c3C[C@H]2CN1C(=O)c1ccccc1", "Category label": "true"}
{"Molecule": "C=CC[C@]1(C(=O)NCc2ccccc2)N=C(c2ccc(OCCCO)cc2)O[C@H]1c1ccccc1N=[N+]=[N-]", "Category label": "true"}
{"Molecule": "CC(C)C(O)C1C=CC2C(=O)N(c3ccccc3)C(=O)C2N1Nc1ccc([N+](=O)[O-])cc1 (stereo not drawn)", "Category label": "true"}
{"Molecule": "CN1C(=O)C2C=CC(C(O)c3ccccc3)N(N(c3ccccc3)c3ccccc3)C2C1=O (stereo not drawn)", "Category label": "true"}
{"Molecule": "COC(=O)C(CC#Cc1ccc2c(c1)[C@]1(C(=O)N2)[C@H](c2ccc(OCCO)cc2)N2[C@H](c3ccccc3)[C@H](c3ccccc3)OC(=O)[C@H]2[C@@H]1C(=O)Nc1nc2ccccc2s1)C(=O)OC", "Category label": "false"}

###

Quick list: composite z-score per entry.
assay: small-molecule binders of probe aLefty1, primary screen, biochemical, small-molecule microarray, 635/667 nm fluorescence (AID 1153); settings: higher = more signal;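 note: score merges spot fluorescence with signal-to-noise ratio from the scanned slide images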

{"Compound": "CCCCN1CC=CC23O[C@@H]4C=CCCOC(=O)C4[C@H]2C(=O)N(CCCCCCO)[C@@H]3C1=O (stereo partly drawn)", "composite z-score": -0.147}
{"Compound": "COC(=O)[C@@]1(Cc2ccc(F)cc2)[C@H]2c3cc(C(=O)N(C)C)n(Cc4ccccc4)c3C[C@H]2CN1C(=O)c1ccccc1", "composite z-score": 0.342}
{"Compound": "C=C[C@H](CO)NS(=O)(=O)c1ccc(Br)cc1", "composite z-score": -0.24}
{"Compound": "CCCCCN1CC=CC23O[C@@H]4C=CCCOC(=O)C4[C@H]2C(=O)N(CCCCCO)[C@@H]3C1=O (stereo partly drawn)", "composite z-score": -0.0984}
{"Compound": "CC(C)C(O)C1C=CC2C(=O)N(c3ccccc3)C(=O)C2N1Nc1ccc([N+](=O)[O-])cc1 (stereo not drawn)", "composite z-score": 0.0045}
{"Compound": "C=CC[C@@]12N=C(c3ccc(OCCCO)cc3)O[C@@H]1c1ccccc1N(C)C2=O", "composite z-score": 0.349}
{"Compound": "CN1C(=O)C2C=CC(C(O)c3ccccc3)N(N(c3ccccc3)c3ccccc3)C2C1=O (stereo not drawn)", "composite z-score": 0.267}
{"Compound": "COCCOC(=O)N1C(=O)[C@@]2(c3cc(C#CCCO)ccc31)[C@H](C(=O)N1CCCCCCC1)[C@H]1C(=O)O[C@H](c3ccccc3)[C@H](c3ccccc3)N1[C@@H]2c1ccc(OCCO)cc1", "composite z-score": 2.45}

###

assay: HepG2 cell viability effects, profiling panel, calcein-AM fluorescence, 48 h, basal (AID 1164); details: higher = more signal; note: test concentration not given here
Measured property: z-score

{"Molecule": "COC(=O)[C@@]1(Cc2ccc(OC)cc2)[C@H]2c3cc(C(=O)N(C)C)n(CCc4ccccn4)c3C[C@H]2CN1C(=O)c1ccccc1", "Measured property": "z-score", "Numeric readout": -0.173}
{"Molecule": "CC(C)OC(=O)C=C1C[C@@H](c2ccccn2)O[C@@H](c2ccccn2)O1", "Measured property": "z-score", "Numeric readout": -0.217}
{"Molecule": "COc1ccc(C#Cc2ccc3c(c2)[C@]2(C(=O)N3)[C@H](C(=O)NC[C@H](O)c3ccccc3)[C@H]3C(=O)O[C@H](c4ccccc4)[C@H](c4ccccc4)N3[C@@H]2c2ccc(O)cc2)cc1", "Measured property": "z-score", "Numeric readout": -0.0809}
{"Molecule": "CCCc1cc2c(n1Cc1cc(F)cc(F)c1)C(C)C1CN(C(=O)c3ccccc3)C(C)(C(=O)OC)C21 (stereo not drawn)", "Measured property": "z-score", "Numeric readout": -0.237}
{"Molecule": "COC(=O)[C@@]1(Cc2ccccc2)[C@H]2c3cc(C(=O)N(C)C)n(Cc4ccsc4Br)c3C[C@H]2CN1C(=O)c1ccccc1", "Measured property": "z-score", "Numeric readout": 0.369}
{"Molecule": "COC(=O)[C@@]1(Cc2ccc(OC)cc2)[C@H]2c3cc(C(=O)N(C)C)n(C)c3C[C@H]2CN1C(=O)c1ccccc1", "Measured property": "z-score", "Numeric readout": -1.7}
{"Molecule": "C#C[C@H](O[Si](C#Cc1ccc(Oc2ccccc2)cc1)(C(C)C)C(C)C)c1ccccc1", "Measured property": "z-score", "Numeric readout": -1.48}
{"Molecule": "C=C(/C(=C/C[C@H](OC(C)=O)c1ccc(CO)o1)c1cc(C(=O)OC)ccc1OC)C(C)C", "Measured property": "z-score", "Numeric readout": -0.812}
{"Molecule": "O=C1[C@@]23C=C(Br)[C@H](C[C@@H]2CCOC3)[C@@]12CO2", "Measured property": "z-score", "Numeric readout": -0.0809}
{"Molecule": "COC(=O)c1c(CC[C@@H](CO)NC(=O)NCCn2cc(C3(O)CCCC3)nn2)oc(C(C)=O)c1C(=O)OC", "Measured property": "z-score", "Numeric readout": 0.122}
{"Molecule": "[N-]=[N+]=Nc1ccccc1[C@@H]1OC(c2ccc(OCCCO)cc2)=N[C@]1(Cc1ccccc1)C(=O)N1CCOCC1", "Measured property": "z-score", "Numeric readout": -0.404}
{"Molecule": "C=CCOC(=O)[C@@H]1[C@H]2C(=O)O[C@H](c3ccccc3)[C@H](c3ccccc3)N2[C@H](c2ccc(OCCOC(=O)[C@H]3C[C@H]4C(=O)N5CCC[C@H]5C(=O)N4[C@H]3c3ccc(O)cc3)cc2)[C@@]12C(=O)Nc1ccc(I)cc12", "Measured property": "z-score", "Numeric readout": -1.02}
{"Molecule": "COCCOC(=O)N1C(=O)[C@@]2(c3cc(C#CC4(O)CCCCCC4)ccc31)[C@H](c1ccc(OCCO)cc1)N1[C@H](c3ccccc3)[C@H](c3ccccc3)OC(=O)[C@H]1[C@@H]2C(=O)N1CCN(c2ncccn2)CC1", "Measured property": "z-score", "Numeric readout": -0.0949}
{"Molecule": "C[N+](C)(C)CCCCCCNC(=O)[C@@H]1C[C@@H]2C(=O)N[C@@H](Cc3ccccc3)C(=O)N2[C@@H]1c1cccc(OCCO)c1", "Measured property": "z-score", "Numeric readout": 0.417}
{"Molecule": "C=CC(=C)[C@H]1Oc2ccccc2S(=O)(=O)N2CCC[C@@H]12", "Measured property": "z-score", "Numeric readout": -1.23}
{"Molecule": "C=C(C)[C@@H]1CC=C(C(O)C2C=CC3C(=O)N(c4ccccc4)C(=O)C3N2Nc2ccccc2)CC1 (stereo partly drawn)", "Measured property": "z-score", "Numeric readout": 1.16}
{"Molecule": "CC(C)N1C(=O)C[C@@](C(=O)NCC(F)(F)F)(c2ccc([N+](=O)[O-])cc2)[C@H]1c1ccc(CO)cc1", "Measured property": "z-score", "Numeric readout": -0.0704}
{"Molecule": "COCCOC(=O)N1C(=O)[C@@]2(c3cc(C#CCNC(N)=O)ccc31)[C@H](C(=O)N1CCN(c3ncccn3)CC1)[C@H]1C(=O)O[C@H](c3ccccc3)[C@H](c3ccccc3)N1[C@@H]2c1ccc(OCCO)cc1", "Measured property": "z-score", "Numeric readout": 0.548}
{"Molecule": "CO[C@H]1O[C@H](CO)[C@@H](OC(=O)Nc2ccccc2)[C@H](OC(=O)Nc2ccccc2)[C@@H]1OC(=O)Nc1ccccc1", "Measured property": "z-score", "Numeric readout": -1.68}
{"Molecule": "CCCCCN1CC=CC23O[C@@H]4C=CCCOC(=O)C4[C@H]2C(=O)N(CCCCCO)[C@@H]3C1=O (stereo partly drawn)", "Measured property": "z-score", "Numeric readout": 0.542}
{"Molecule": "COc1ccc([Si](C)(C)[C@H]2[C@H](CC(=O)N3Cc4ccccc4C[C@H]3CO)O[C@@]3(C(=O)N(Cc4cccc(N5CCC5=O)c4)c4ccccc43)[C@@H]2C)cc1", "Measured property": "z-score", "Numeric readout": -0.616}
{"Molecule": "CC(C)C(=C=CC[C@@H](O)c1ccc(OCCO)cc1)C[C@@H](O)c1ccccn1", "Measured property": "z-score", "Numeric readout": 0.411}
{"Molecule": "CC(C)=CCCC(C)=CC(O)C1C=CC2C(=O)N(C)C(=O)C2N1Nc1ccccc1 (stereo not drawn)", "Measured property": "z-score", "Numeric readout": -1.35}
{"Molecule": "CCOC(=O)C1=C[C@@H](C(C)(C)C)N(S(=O)(=O)c2ccc(C)cc2)[C@H]1c1ccc(F)cc1", "Measured property": "z-score", "Numeric readout": -1.71}
{"Molecule": "CCCCN1CC=CC23O[C@@H]4C=CCCOC(=O)C4[C@H]2C(=O)N(CCCCCCO)[C@@H]3C1=O (stereo partly drawn)", "Measured property": "z-score", "Numeric readout": 0.441}
{"Molecule": "CN(C)CCCCCCNC(=O)[C@@H]1C[C@@H]2C(=O)N[C@@H](Cc3ccccc3)C(=O)N2[C@@H]1c1ccc(O)cc1", "Measured property": "z-score", "Numeric readout": -0.948}
{"Molecule": "CCc1cccc(NC(=O)O[C@H]2[C@H](OC(=O)Nc3ccccc3-c3ccccc3)[C@@H](OC(=O)Nc3ccccc3-c3ccccc3)[C@@H](OC)O[C@@H]2CO)c1", "Measured property": "z-score", "Numeric readout": -4.64}
{"Molecule": "COC(=O)[C@@]1(CCC(=O)OC(C)(C)C)N=C(c2ccc(OCCCO)cc2)O[C@H]1c1ccccc1N=[N+]=[N-]", "Measured property": "z-score", "Numeric readout": -1.92}
